Overview of recorded melting point for various molecules
measurement_name: melting point

> print(dat)
                                   molecule  measurement.name  endpoint.result
1  CCc1c(Sc2cc(C)cc(C)c2)n(Cc2cccc(OC)c2)c(=O)[nH]c1=O [Example 25]     melting point    130 to 131 °C
2  Cc1cc(C)cc(C(=O)c2c(C(C)C)c(=O)[nH]c(=O)n2Cn2nnc3ccccc32)c1 [Example 144]     melting point    246 to 247 °C
3  CCc1c(C(=O)c2cc(C)cc(C)c2)n(Cc2cc(F)cc(F)c2)c(=O)[nH]c1=O [Example 77]     melting point    165 to 167 °C
4  CCc1c(C(=O)c2cc(C)cc(C)c2)n(CC(C)=O)c(=O)[nH]c1=O [Example 159]     melting point    186 to 189 °C

###

# Test system: HIV
# assay_overview: microbe, parasite or virus in culture
# Format: cell-based
# test_parameters: Human immunodeficiency virus 1, MT4; HIV-infected MT-4 cells, MTT method, 4 or 5 days at 37° C.; read-out: ED50 (the source's name)
measurement_name: EC50

> print(dat)
                                   compound  measurement.name  endpoint.result
1  CCc1c(Sc2cc(C)cc(C)c2)n(Cc2cc(C(F)(F)F)cc(C(F)(F)F)c2)c(=O)[nH]c1=O [Example 61]              EC50      > 100 µg/mL
2  CCc1c(Oc2cc(C)cc(C)c2)n(Cc2cc(F)cc(F)c2)c(=O)[nH]c1=O [Example 75]              EC50     > 14.3 µg/mL
3  Cc1cc(C)cc(Sc2c(C(C)C)c(=O)[nH]c(=O)n2Cc2ccc3ccccc3n2)c1 [Example 132]              EC50     > 9.58 µg/mL
4  CCc1c(Sc2cc(C)cc(C)c2)n(Cc2ccc3ccccc3n2)c(=O)[nH]c1=O [Example 131]              EC50     > 10.6 µg/mL

###

# System: HIV
# assay_overview: microbe, parasite or virus in culture
# Format: cell-based
# test_parameters: Human immunodeficiency virus 1, MT4; HIV-infected MT-4 cells, MTT method, 4 or 5 days at 37° C.; read-out: ED50 (the source's name)
This listing pairs compounds with measured EC50.
measurement_name: EC50 (µg/mL)

> print(dat)
                           structure.smiles  result.units  bound.operator  endpoint.result
1  Cc1cc(C)cc(Sc2c(C(C)C)c(=O)[nH]c(=O)n2Cc2cc(C(F)(F)F)cc(C(F)(F)F)c2)c1         µg/mL               >              100
2  CCc1c(Sc2cc(C)cc(C)c2)n(Cc2ccc3c(c2)C(=O)c2ccccc2C3=O)c(=O)[nH]c1=O         µg/mL               >             85.2
3  Cc1cc(C)cc(Sc2c(C(C)C)c(=O)[nH]c(=O)n2Cc2cccc(Cl)n2)c1         µg/mL               >              2.8
4  CCc1c(Oc2cc(C)cc(C)c2)n(Cc2ccc3ccccc3n2)c(=O)[nH]c1=O         µg/mL               =             0.06
5  Cc1cc(C)cc(Oc2c(C(C)C)c(=O)[nH]c(=O)n2Cc2ccccc2C#N)c1         µg/mL               >              100
6  CCc1c(Sc2cc(C)cc(C)c2)n(Cc2ccccc2)c(=O)[nH]c1=O         µg/mL               =            0.015
7  Cc1cc(C)cc(Oc2c(C(C)C)c(=O)[nH]c(=O)n2Cc2cc(F)ccc2F)c1         µg/mL               =            0.014
8  Cc1cc(C)cc(Oc2c(C(C)C)c(=O)[nH]c(=O)n2Cc2cccc(Cl)n2)c1         µg/mL               =            0.082
